Reported folding stability dG unfold by item:
Experiment: folding stability dG unfold from trypsin proteolysis; higher = more stable
measurement-type: folding stability dG unfold (kcal/mol)

1) SMIVKSEPVKDPNSDLTTTPVTITLPVREYDPSLGVTRERLVTINGTVITTLLEKHPDGSVISTVDVLPASA [r9_1058_JUSTAS]    -0.177
2) SAGGSEEEIKKKIEEIAKKRGTKIKSITIKKLPDGSLLATVTLEDNPNTTIEFKVEKNKVEITKINKSAGGS [r8_432_JUSTAS]    1.73
3) SAGGSKTIEVEIKVPPGMTPEEVAKKLAEELKKAGIEVKVVKVEYDEEKGTVRITLDDGSEVELKVSAGGSA [r2_242_TrROS_Hall]    1.35
4) SAGGSAGGSAGMITIERIPGSGKLVITITDPGSGKVLTIPFDNADPKEALAKAKELLKKLSAGGSAGGSAGG [r17_386_JUSTAS]    3.25
5) SPVLEKIRKLVEELLKKLGIEVKEGETVEIEITLPDGSTIRITFDAKTKKITVEITIDGKKVTLTLEIKPSA [r9_426_TrROS_Hall]    4.2
6) SAGGSAGGSPELKISFPGFEGAEVELDPETNIATVRVKLPDKELELKVRIDDDGITIVEVREVSAGGSAGGS [r20_60_TrMRF]    1.95
7) SAGGNLFIRIKIEHDGGPITHWFPIKDAEQAKDNIKEFFDQQGLPVKIKEIEVFPEEGFIPVEWRVPPSAGG [r13_567_TrROS]    0.101
